Origin of values: patent US20120107330A1

Molecular target: T1, human TNFR1 on MRC-5 cells (human, UniProt P19438 30-455)
T1 sequence (looked up): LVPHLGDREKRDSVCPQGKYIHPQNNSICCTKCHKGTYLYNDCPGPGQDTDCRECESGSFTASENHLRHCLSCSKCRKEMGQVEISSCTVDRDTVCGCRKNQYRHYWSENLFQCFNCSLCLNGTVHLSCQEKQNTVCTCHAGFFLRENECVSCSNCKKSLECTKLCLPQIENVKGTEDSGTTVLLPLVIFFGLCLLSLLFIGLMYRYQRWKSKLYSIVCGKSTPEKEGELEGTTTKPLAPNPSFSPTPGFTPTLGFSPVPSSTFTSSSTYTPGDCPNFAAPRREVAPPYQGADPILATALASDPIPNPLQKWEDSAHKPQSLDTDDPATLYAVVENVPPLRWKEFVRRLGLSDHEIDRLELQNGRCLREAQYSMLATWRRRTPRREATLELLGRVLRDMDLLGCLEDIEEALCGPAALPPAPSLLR
Experiment: cell-based or functional assay
Property Measured: ND50 (MRC5) (nM)
State just the number; it will be interpreted in nM.

Observe how each entry below is paired with its result.
Given DMS0184 (bispecific antibody, anti-TNFR1 dAb / AlbudAb in-line fusion) EVQLLESGGGLVQPGGSLRLSCAASGFTFVKYSMGWVRQAPGKGPEWVSQISNTGDRTYYADSVKGRFTISRDNSKNTLYLQMNSLRAEDTAVYYCAIYTGRWEPFDYWGQGTLVTVSSASTSGPSDIQMTQSPSSLSASVGDRVTITCRASRPIGTTLSWYQQKPGKAPKLLIWFGSRLQSGVPSRFSGSGSGTDFTLTISSLQPEDFATYYCAQAGTHPTTFGQGTKVEIKR , state its recorded ND50 (MRC5). 19

Given DMS0163 (bispecific antibody, anti-TNFR1 dAb / AlbudAb in-line fusion) EVQLLESGGGLVQPGGSLRLSCAASGFTFVKYSMGWVRQAPGKGPEWVSQISNTGDRTYYADSVKGRFTISRDNSKNTLYLQMNSLRAEDTAVYYCAIYTGRWEPFDYWGQGTLVTVSSASTSGPSDIQMTQSPSSLSASVGDRVTITCRASRPIGTMLSWYQQKPGKAPKLLILAFSRLQSGVPSRFSGSGSGTDFTLTISSLQPEDFATYYCAQAGTHPTTFGQGTKVEIKRAAAEQKLISEEDLN , state its recorded ND50 (MRC5). 12

More entries:
Given DMS0188 (bispecific antibody, anti-TNFR1 dAb / AlbudAb in-line fusion) EVQLLESGGGLVQPGGSLRLSCAASGFTFVKYSMGWVRQAPGKGPEWVSQISNTGDRTYYADSVKGRFTISRDNSKNTLYLQMNSLRAEDTAVYYCAIYTGRWEPFDYWGQGTLVTVSSASTSGPSDIQMTQSPSSLSASVGDRVTITCRASRPIGTMLSWYQQKPGKAPKLLILFGSRLQSGVPSRFSGSGSGTDFTLTISSLQPEDFATYYCAQAGTHPTTFGQGTKVEIKRAAAEQKLISEEDLN , state its recorded ND50 (MRC5). 17
